Subject Of Test: human recombinant H-PGDS (Homo sapiens, UniProt O60760)
Sequence (O60760 whole entry): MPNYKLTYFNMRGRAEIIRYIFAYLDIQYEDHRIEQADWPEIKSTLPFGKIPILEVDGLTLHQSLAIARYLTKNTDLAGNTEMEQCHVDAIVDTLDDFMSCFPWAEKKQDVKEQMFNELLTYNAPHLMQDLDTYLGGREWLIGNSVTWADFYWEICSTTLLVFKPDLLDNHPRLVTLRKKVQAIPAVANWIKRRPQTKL
Test Description: Fluorescence intensity h-PGDS TBA enzyme assay
Type: biochemical
Test Parameters: Examples up to 622 (and 3a, 3b)
For each record, write down the corresponding log10 IC50.
Kindly note that the scale is log10 and the underlying IC50 is in nM.

Name the recorded log10 IC50 of the compound listed here: O=C(NC1CCN(Cc2ccc3[nH]ccc3c2)CC1)c1ccc(-c2cccc(F)c2)nc1 [Example 304]
0.32

Name the recorded log10 IC50 of the compound listed here: COc1cccc(-c2ccc(C(=O)NC3CCN(Cc4ccccc4)CC3)cn2)c1 [Example 17]
1.07

Name the recorded log10 IC50 of the compound listed here: O=C(NC1CCN(Cc2ccn(CCc3ccccc3)n2)CC1)c1ccc(-c2cccc(F)c2)nc1 [Example 394]
-0.42

Name the recorded log10 IC50 of the compound listed here: CCOc1ccc(CN2CCC(NC(=O)c3ccc(-c4cccc(F)c4)nc3)CC2)cc1OC [Example 253]
0.16

Name the recorded log10 IC50 of the compound listed here: CCn1nc(C)c(CN2CCC(NC(=O)c3ccc(-c4cccc(F)c4)nc3)CC2)c1C [Example 274]
0.41

Name the recorded log10 IC50 of the compound listed here: Cn1nc(C(F)(F)F)c(CN2CCC(NC(=O)c3ccc(-c4cccc(F)c4)nc3)CC2)c1Cl [Example 314]
-0.62

Name the recorded log10 IC50 of the compound listed here: CC(c1ccccc1)N1CCC(NC(=O)c2ccc(-c3cccc(F)c3)nc2)CC1 (stereo not drawn) [Example 531]
0.06

Name the recorded log10 IC50 of the compound listed here: O=C(NC1CCN(CC2=Cc3ccccc3OC2)CC1)c1ccc(-c2cccc(F)c2)nc1 [Example 341]
-0.31

Name the recorded log10 IC50 of the compound listed here: COc1ccccc1-c1c(CN2CCC(NC(=O)c3ccc(-c4cccc(F)c4)nc3)CC2)cnn1C [Example 508]
-0.26

Name the recorded log10 IC50 of the compound listed here: O=C(NC1CCN(Cc2ccc(Br)cn2)CC1)c1ccc(-c2cccc(F)c2)nc1 [Example 475]
0.61

Name the recorded log10 IC50 of the compound listed here: O=C(NC1CCN(Cc2ccc3c(c2)CCO3)CC1)c1ccc(-c2cccc(F)c2)nc1 [Example 313]
0.33

Name the recorded log10 IC50 of the compound listed here: COc1cccc(-c2ccc(C(=O)NC3CCN(C)CC3)cn2)c1 [Example 16]
2.16

Name the recorded log10 IC50 of the compound listed here: O=C(NC1CCN(Cc2ccc(Oc3ccccc3)nc2)CC1)c1ccc(-c2cccc(F)c2)nc1 [Example 358]
0.24

Name the recorded log10 IC50 of the compound listed here: COCc1cc(N2CCC(NC(=O)c3ccc(-c4cccc(F)c4)nc3)CC2)nc(-c2ccccc2)n1 [Example 144]
0.98

Name the recorded log10 IC50 of the compound listed here: O=C(NC1CCN(c2nccc(NCc3ccccn3)n2)CC1)c1ccc(-c2cccc(F)c2)nc1 [Example 59]
-0.09

Name the recorded log10 IC50 of the compound listed here: O=C(NC1CCN(Cc2cccc3c2OCC3)CC1)c1ccc(-c2cccc(F)c2)nc1 [Example 490]
-0.22

Name the recorded log10 IC50 of the compound listed here: N#Cc1cccnc1N1CCC(NC(=O)c2ccc(-c3cccc(F)c3)nc2)CC1 [Example 140]
-0.20

Name the recorded log10 IC50 of the compound listed here: COCC(C)n1nnnc1N1CCC(NC(=O)c2ccc(-c3cccc(F)c3)nc2)CC1 (stereo not drawn) [Example 101]
0.15

Name the recorded log10 IC50 of the compound listed here: O=C(NC1CCN(CCCc2ccccc2)CC1)c1ccc(-c2cccc(F)c2)nc1 [Example 301]
0.06

Name the recorded log10 IC50 of the compound listed here: COc1ccc(C)cc1CN1CCC(NC(=O)c2ccc(-c3cccc(F)c3)nc2)CC1 [Example 515]
0.04

Name the recorded log10 IC50 of the compound listed here: CCc1noc(COc2cccc(CN3CCC(NC(=O)c4ccc(-c5cccc(F)c5)nc4)CC3)c2)n1 [Example 388]
-0.02

Name the recorded log10 IC50 of the compound listed here: O=C(NC1CCN(c2ncc3c(n2)CCC3)C1)c1ccc(-c2cccc(F)c2)nc1 (stereo not drawn) [Example 595]
0.03

Name the recorded log10 IC50 of the compound listed here: Cn1nc(CN2CCC(NC(=O)c3ccc(-c4cccc(F)c4)nc3)CC2)nc1-c1ccccn1 [Example 485]
0.44

Name the recorded log10 IC50 of the compound listed here: CC(CCO)N1CCC(NC(=O)c2ccc(-c3cccc(F)c3)nc2)CC1 (stereo not drawn) [Example 550]
0.38

Name the recorded log10 IC50 of the compound listed here: Cc1nc(CN2CCC(NC(=O)c3ccc(-c4cccc(F)c4)nc3)CC2)c[nH]1 [Example 266]
0.33

Name the recorded log10 IC50 of the compound listed here: CC(C)N1CCC(NC(=O)c2ccc(-c3cccc(F)c3)nc2)CC1 [Example 30]
0.58

Name the recorded log10 IC50 of the compound listed here: O=C(NC1CCN(c2nc3ccccc3o2)CC1)c1ccc(-c2cccc(F)c2)nc1 [Example 158]
0.20

Name the recorded log10 IC50 of the compound listed here: O=C(NC1CCN(Cc2cccc3nsnc23)CC1)c1ccc(-c2cccc(F)c2)nc1 [Example 371]
-0.36

Name the recorded log10 IC50 of the compound listed here: Cc1ccc(-c2nc(CN3CCC(NC(=O)c4ccc(-c5cccc(F)c5)nc4)CC3)n(C)n2)nn1 [Example 477]
0.61

Name the recorded log10 IC50 of the compound listed here: CCOc1ccc(CN2CCC(NC(=O)c3ccc(-c4cccc(F)c4)nc3)CC2)cc1OCC [Example 228]
0.40

Name the recorded log10 IC50 of the compound listed here: COCCc1ncc(CN2CCC(NC(=O)c3ccc(-c4cccc(F)c4)nc3)CC2)cn1 [Example 440]
0.29

Name the recorded log10 IC50 of the compound listed here: N#Cc1cccc(-c2csc(CN3CCC(NC(=O)c4ccc(-c5cccc(F)c5)nc4)CC3)n2)c1 [Example 410]
1.21

Name the recorded log10 IC50 of the compound listed here: Cn1nc(CN2CCC(NC(=O)c3ccc(-c4cccc(F)c4)nc3)CC2)nc1-c1ccccc1F [Example 482]
0.38

---

Subject Of Test: human recombinant H-PGDS (Homo sapiens)
Test Description: Fluorescence intensity h-PGDS TBA enzyme assay
Type: biochemical
Test Parameters: Examples up to 622 (and 3a, 3b)
Measured Property: pIC50
Just the number, please; pIC50 means minus log10 of the concentration in mol/L.

Name the recorded pIC50 of the molecule listed here: N#Cc1ccccc1C(=O)c1cccnc1N1CCC(NC(=O)c2ccc(-c3cccc(F)c3)nc2)CC1
9.37

Name the recorded pIC50 of the molecule listed here: O=C(NC1CCN(Cc2ccccc2Cn2cccn2)CC1)c1ccc(-c2cccc(F)c2)nc1
9.05

Name the recorded pIC50 of the molecule listed here: O=C(NC1CCN(Cc2cccc(Cl)c2)CC1)c1ccc(-c2cccc(F)c2)nc1
9.45

Name the recorded pIC50 of the molecule listed here: COc1cccc(F)c1CN1CCC(NC(=O)c2ccc(-c3cccc(F)c3)nc2)CC1
9.34

Name the recorded pIC50 of the molecule listed here: O=C(NC1CCN(Cc2cccc(-c3ccccn3)c2)CC1)c1ccc(-c2cccc(F)c2)nc1
8.65

Name the recorded pIC50 of the molecule listed here: O=C(NC1CCN(Cc2n[nH]c3ccc(Cl)cc23)CC1)c1ccc(-c2cccc(F)c2)nc1
9.41

Name the recorded pIC50 of the molecule listed here: Nc1ncc(CN2CCC(NC(=O)c3ccc(-c4cccc(F)c4)nc3)CC2)cn1
8.69

Name the recorded pIC50 of the molecule listed here: COc1ccc(CN2CCC(NC(=O)c3ccc(-c4cccc(F)c4)nc3)CC2)cc1CN(C)C
8.39

---

For each record, write down the corresponding IC50.
Subject Of Test: human recombinant H-PGDS (Homo sapiens, UniProt O60760)
Test Description: Fluorescence intensity h-PGDS TBA enzyme assay
Assay type: biochemical
Test Parameters: Examples up to 622 (and 3a, 3b)
The answer is to be given in nM; state only the numeric part.

Name the recorded IC50 of the molecule listed here: O=C(O)c1ccc(N2CCC(NC(=O)c3ccc(-c4cccc(F)c4)nc3)CC2)nc1
0.641

Name the recorded IC50 of the molecule listed here: Cn1cc(CN2CCC(NC(=O)c3ccc(-c4cccc(F)c4)nc3)CC2)c(=O)n(C)c1=O
2

Name the recorded IC50 of the molecule listed here: O=C(NC1CCN(C2CNC2)CC1)c1ccc(-c2cccc(F)c2)nc1
2.37

Name the recorded IC50 of the molecule listed here: Cn1ncc(CN2CCC(NC(=O)c3ccc(-c4cccc(F)c4)nc3)CC2)c1-c1ccc(F)cc1
0.633

---

For each record, write down the corresponding log10 of IC50.
Subject Of Test: human recombinant H-PGDS (Homo sapiens, UniProt O60760)
Test Description: Fluorescence intensity h-PGDS TBA enzyme assay
Type: biochemical
Test Parameters: Examples up to 622 (and 3a, 3b)
Kindly note that the scale is log10 and the underlying IC50 is in nM.

Name the recorded log10 of IC50 of the molecule listed here: O=C(NC1CCN(Cc2ccc(-c3ccn[nH]3)cc2)CC1)c1ccc(-c2cccc(F)c2)nc1
-0.31

Name the recorded log10 of IC50 of the molecule listed here: CC(CCn1cccn1)N1CCC(NC(=O)c2ccc(-c3cccc(F)c3)nc2)CC1 (stereo not shown)
0.32

Name the recorded log10 of IC50 of the molecule listed here: O=C(NC1CCN(Cc2c(F)c(F)cc(F)c2F)CC1)c1ccc(-c2cccc(F)c2)nc1
-0.21

Name the recorded log10 of IC50 of the molecule listed here: CNS(=O)(=O)c1ccc(CN2CCC(NC(=O)c3ccc(-c4cccc(F)c4)nc3)CC2)cc1
-0.20

Name the recorded log10 of IC50 of the molecule listed here: N#Cc1ccc(Oc2ccc(CN3CCC(NC(=O)c4ccc(-c5cccc(F)c5)nc4)CC3)cn2)cc1
0.31

Name the recorded log10 of IC50 of the molecule listed here: CC(C)(C)OC(=O)CCCN1CCC(NC(=O)c2ccc(-c3cccc(F)c3)nc2)CC1
0.62

Name the recorded log10 of IC50 of the molecule listed here: CCOc1ncccc1CN1CCC(NC(=O)c2ccc(-c3cccc(F)c3)nc2)CC1
-0.14

Name the recorded log10 of IC50 of the molecule listed here: Cc1sc(CN2CCC(NC(=O)c3ccc(-c4cccc(F)c4)nc3)CC2)nc1-c1ccccc1
0.61

Name the recorded log10 of IC50 of the molecule listed here: Cc1ccc(CN2CCC(NC(=O)c3ccc(-c4cccc(F)c4)nc3)CC2)c(F)c1
0.43

Name the recorded log10 of IC50 of the molecule listed here: CCCn1cc(CN2CCC(NC(=O)c3ccc(-c4cccc(F)c4)nc3)CC2)c(C)n1
-0.18

Name the recorded log10 of IC50 of the molecule listed here: CCCN(C)C(=O)c1ccc(N2CCC(NC(=O)c3ccc(-c4cccc(F)c4)nc3)CC2)nc1
0.72

Name the recorded log10 of IC50 of the molecule listed here: O=C(NC1CCN(c2nnnn2-c2ccccc2)CC1)c1ccc(-c2cccc(F)c2)nc1
-0.03

Name the recorded log10 of IC50 of the molecule listed here: O=C(NC1CCN(c2ncnc3c2ncn3C2CC2)CC1)c1ccc(-c2cccc(F)c2)nc1
-0.62

Name the recorded log10 of IC50 of the molecule listed here: O=C(NC1CCN(c2nnnn2CC2CC2)CC1)c1ccc(-c2cccc(F)c2)nc1
0.32

Name the recorded log10 of IC50 of the molecule listed here: O=C(NC1CCN(Cc2nc3ccccc3n2CF)CC1)c1ccc(-c2cccc(F)c2)nc1
0.11

Name the recorded log10 of IC50 of the molecule listed here: O=C(NC1CCN(c2nccc(-c3cccc(F)c3)n2)CC1)c1ccc(-c2cccc(F)c2)nc1
1.54
